# PROTOCOL SUMMARY: activity coefficient (dimensionless); of the first substance listed, at infinite dilution; xn = mol fraction of the nth substance listed
# CONDITION NOTES: 343 K; 87.4 kPa; Liquid; Chromatography; x1 = 0
ATTRIBUTE MEASURED: activity coefficient
Give bare numbers.

{"MOLECULE": "Cc1ccccc1 [toluene] + O=S(=O)([N-]S(=O)(=O)C(F)(F)F)C(F)(F)F.O=S(=O)([N-]S(=O)(=O)C(F)(F)F)C(F)(F)F.c1ccc2cc(C[N+]3(CCCCCCCCC[N+]4(Cc5ccc6ccccc6c5)CCCC4)CCCC3)ccc2c1", "activity coefficient": 0.727}
{"MOLECULE": "c1ccccc1 [benzene] + O=S(=O)([N-]S(=O)(=O)C(F)(F)F)C(F)(F)F.O=S(=O)([N-]S(=O)(=O)C(F)(F)F)C(F)(F)F.c1ccc2cc(C[N+]3(CCCCCCCCC[N+]4(Cc5ccc6ccccc6c5)CCCC4)CCCC3)ccc2c1", "activity coefficient": 0.574}
{"MOLECULE": "Cc1cccc(C)c1 [1,3-dimethylbenzene] + O=S(=O)([N-]S(=O)(=O)C(F)(F)F)C(F)(F)F.O=S(=O)([N-]S(=O)(=O)C(F)(F)F)C(F)(F)F.c1ccc2cc(C[N+]3(CCCCCCCCC[N+]4(Cc5ccc6ccccc6c5)CCCC4)CCCC3)ccc2c1", "activity coefficient": 0.996}

# input for lookup
Input CCCCCCC [heptane] + O=S(=O)([N-]S(=O)(=O)C(F)(F)F)C(F)(F)F.O=S(=O)([N-]S(=O)(=O)C(F)(F)F)C(F)(F)F.c1ccc2cc(C[N+]3(CCCCCCCCC[N+]4(Cc5ccc6ccccc6c5)CCCC4)CCCC3)ccc2c1 , output reported activity coefficient.
4.65
